All values here come from the supplement of paper PMC7125110.

B1: glmS ribozyme (parent)
chain: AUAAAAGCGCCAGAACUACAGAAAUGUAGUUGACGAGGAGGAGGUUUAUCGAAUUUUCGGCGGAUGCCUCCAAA

# Variants of: B1
# protocol summary: self-cleavage kobs at 640 uM GlcN6P; higher = faster cleavage; RNA array
# assay conditions: with glucosamine-6-phosphate
This sample holds only a part of the variants without activity.

>  <variant code>
G13C C70U

>  <units label>
s⁻¹

>  <qualifier sign>
=

>  <self-cleavage kobs at 640 uM GlcN6P>
4.57e-05

$$$$
>  <variant code>
A14G U56G U57C

>  <units label>
s⁻¹

>  <qualifier sign>
=

>  <self-cleavage kobs at 640 uM GlcN6P>
5.18e-05

$$$$
>  <variant code>
C10A U56C

>  <units label>
s⁻¹

>  <qualifier sign>
<

>  <self-cleavage kobs at 640 uM GlcN6P>
1e-05

$$$$
>  <variant code>
A42C G43U U56A G66U

>  <units label>
s⁻¹

>  <qualifier sign>
<

>  <self-cleavage kobs at 640 uM GlcN6P>
1e-05

$$$$
>  <variant code>
G29A A39U G40A

>  <units label>
s⁻¹

>  <qualifier sign>
=

>  <self-cleavage kobs at 640 uM GlcN6P>
0.000163

$$$$
>  <variant code>
A15G A53C C68U

>  <units label>
s⁻¹

>  <qualifier sign>
=

>  <self-cleavage kobs at 640 uM GlcN6P>
4.28e-05

$$$$
>  <variant code>
A14G U31A C67G

>  <units label>
s⁻¹

>  <qualifier sign>
=

>  <self-cleavage kobs at 640 uM GlcN6P>
0.000237

$$$$
>  <variant code>
A12C G29A

>  <units label>
s⁻¹

>  <qualifier sign>
=

>  <self-cleavage kobs at 640 uM GlcN6P>
0.00107

$$$$
>  <variant code>
G38C U65G

>  <units label>
s⁻¹

>  <qualifier sign>
<

>  <self-cleavage kobs at 640 uM GlcN6P>
1e-05

$$$$
>  <variant code>
G40A A42G

>  <units label>
s⁻¹

>  <qualifier sign>
=

>  <self-cleavage kobs at 640 uM GlcN6P>
0.00157

$$$$
>  <variant code>
A48G U55C G59C

>  <units label>
s⁻¹

>  <qualifier sign>
<

>  <self-cleavage kobs at 640 uM GlcN6P>
1e-05

$$$$
>  <variant code>
A6U A36C G38A A52U

>  <units label>
s⁻¹

>  <qualifier sign>
<

>  <self-cleavage kobs at 640 uM GlcN6P>
1e-05

$$$$
>  <variant code>
C34A C50U

>  <units label>
s⁻¹

>  <qualifier sign>
<

>  <self-cleavage kobs at 640 uM GlcN6P>
1e-05

$$$$
>  <variant code>
G37C G62C

>  <units label>
s⁻¹

>  <qualifier sign>
<

>  <self-cleavage kobs at 640 uM GlcN6P>
1e-05

$$$$
>  <variant code>
G29A A36C

>  <units label>
s⁻¹

>  <qualifier sign>
<

>  <self-cleavage kobs at 640 uM GlcN6P>
1e-05

$$$$
>  <variant code>
C10A A36C

>  <units label>
s⁻¹

>  <qualifier sign>
<

>  <self-cleavage kobs at 640 uM GlcN6P>
1e-05

$$$$
>  <variant code>
A53C C71A

>  <units label>
s⁻¹

>  <qualifier sign>
=

>  <self-cleavage kobs at 640 uM GlcN6P>
0.000254

$$$$
>  <variant code>
C8G G66A

>  <units label>
s⁻¹

>  <qualifier sign>
<

>  <self-cleavage kobs at 640 uM GlcN6P>
1e-05

$$$$
>  <variant code>
U56A G66A

>  <units label>
s⁻¹

>  <qualifier sign>
=

>  <self-cleavage kobs at 640 uM GlcN6P>
0.00117

$$$$
>  <variant code>
G13A A39U U55C

>  <units label>
s⁻¹

>  <qualifier sign>
=

>  <self-cleavage kobs at 640 uM GlcN6P>
4.33e-05

$$$$
>  <variant code>
C8G G13C G40A U56A G59U

>  <units label>
s⁻¹

>  <qualifier sign>
<

>  <self-cleavage kobs at 640 uM GlcN6P>
1e-05

$$$$
>  <variant code>
G41A U55C

>  <units label>
s⁻¹

>  <qualifier sign>
=

>  <self-cleavage kobs at 640 uM GlcN6P>
1.88e-05

$$$$
>  <variant code>
G35C A36G U49A

>  <units label>
s⁻¹

>  <qualifier sign>
<

>  <self-cleavage kobs at 640 uM GlcN6P>
1e-05

$$$$
